Data provenance is patent US11091477B2.

# System: HCT116 (human colon cancer)
# MEASUREMENT_PROTOCOL: CCK-8 cell viability assay on HCT116 human colon cancer cells
# Assay type: cell-based
# MEASUREMENT_PARAMETERS: HCT-116, 48 h, read-out: EC50 (uM, HCT116)
QUANTITY_KIND: EC50 (µM)
Report the figure in µM without appending any unit label.

Using HCT116 (human colon cancer) as the test system, report measured EC50 of Cc1ccccc1CN1C(=O)C2=C(CCN(Cc3ccccc3)C2)N2CCN=C12 [TIC10, reference compound] .
2.8

Using HCT116 (human colon cancer) as the test system, report measured EC50 of `Cn1c2c(c(=O)n(Cc3ccc(Cl)cc3)c1=O)CN(Cc1cccc(C#N)c1)CC2` .
0.74
